# Test system: Tyrosine-protein kinase ABL1 (Homo sapiens), P00519 [M351T]
# Test settings: at 1 µM
Measured parameter: inhibition (%)
Dear colleague, please return just the value in %, with no unit written.

Data request: Notebook entry, Tyrosine-protein kinase ABL1 (Homo sapiens), P00519 [M351T] assay: inhibition of Cc1ccc(C(=O)NC2CCC2)cc1-c1ccc(C(=O)NCC2CC2)cc1 = ?
Data returned: -0.39

Data request: Notebook entry, Tyrosine-protein kinase ABL1 (Homo sapiens), P00519 [M351T] assay: inhibition of NS(=O)(=O)c1ccc(N/N=C2\C(=O)Nc3ccc(C(=O)NCCCn4ccnc4)cc32)cc1 = ?
Data returned: 14.2

Data request: Notebook entry, Tyrosine-protein kinase ABL1 (Homo sapiens), P00519 [M351T] assay: inhibition of COc1cc2ncn(-c3cc(OCCc4ccccc4)c(C(N)=O)s3)c2cc1OC = ?
Data returned: 11.6

Data request: Notebook entry, Tyrosine-protein kinase ABL1 (Homo sapiens), P00519 [M351T] assay: inhibition of Cc1ccc(NC(=O)c2ccoc2)cc1-c1ccc(C(=O)NCC2CC2)cc1 = ?
Data returned: 1.82
